Test system: wheat germ agglutinin (Triticum aestivum), Alexa647-labelled
Assay: wheat germ agglutinin binders on compound microarrays, profiling panel, artefact control for SMM control-protein annotation, biochemical, small-molecule microarray, 635/667 nm fluorescence (AID 1140);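 note: score merges 667 nm feature emission with signal to noise over triplicate slides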
Conditions: WGA-A647 binding, 635 nm fluorescence, higher = more signal
Outcome: Criterion met for composite z-score of at least -0.2; Criterion not met for anything lower.

Reference set, count: 9
{"compound": "C=CCOC(=O)[C@@H]1[C@H]2C(=O)O[C@H](c3ccccc3)[C@H](c3ccccc3)N2[C@H](c2ccc(OCCOC(=O)[C@H]3C[C@H]4C(=O)N5CCC[C@H]5C(=O)N4[C@H]3c3ccc(O)cc3)cc2)[C@@]12C(=O)Nc1ccccc12", "class": "Criterion met"}
{"compound": "CO[C@H]1COC(=O)[C@H](C)NC(=O)CC=C[C@@H](C)[C@H](NS(=O)(=O)c2ccc(C)cc2)COC(=O)CC=C[C@@H]1C", "class": "Criterion not met"}
{"compound": "CC[C@H]1C2=C3C(CC[C@H]4C(OC)OC[C@](C)([C@@H]34)N(C(=O)OC(C)(C)C)C2)C(CO)C1CO (stereo not given in full)", "class": "Criterion met"}
{"compound": "COC(=O)C[C@H]1O[C@]2(C(=O)N(Cc3ccccc3)c3ccc(I)cc32)[C@@H](C)[C@@H]1[Si](C)(C)c1ccc(OC)cc1", "class": "Criterion met"}
{"compound": "CO[C@@H]1COC(=O)[C@H](C)NC(=O)CC=C[C@@H](C)[C@H](NS(=O)(=O)c2ccc(C)cc2)COC(=O)CC=C[C@@H]1C", "class": "Criterion not met"}
{"compound": "O=C1O[C@H](c2ccccc2)[C@H](c2ccccc2)N2[C@H]1[C@@H](C(=O)Nc1nc3ccccc3s1)[C@]1(C(=O)Nc3ccc(C#CC4=CCCCC4)cc31)[C@H]2c1ccccc1OCCO", "class": "Criterion met"}
{"compound": "COc1cccc([C@H]2N[C@H](C(=O)O)CC[C@@H]2C)c1", "class": "Criterion not met"}
{"compound": "Cc1ccc(S[C@]2(C(=O)NC3CC3)CC(=O)N(Cc3cc(C(F)(F)F)cc(C(F)(F)F)c3)[C@@H]2c2ccc(CO)cc2)cc1", "class": "Criterion met"}
{"compound": "CO[C@H]1COC(=O)[C@H](C)NC(=O)CC=C[C@@H](C)[C@H](NS(=O)(=O)c2ccc(C)cc2)COC(=O)[C@@H](OCc2ccccc2)C=C[C@@H]1C", "class": "Criterion not met"}

Here is another compound to look at.
Problem: Kindly determine if composite z-score recorded for `C=C(C(=O)CC[C@H](OC(=O)c1ccccc1-c1ccccc1C(=O)O)c1ccc(CO)o1)C(C)C` is above or exactly -0.2.
Solution: Criterion met

###

Measured composite z-score of individual entries
Experiment: binders of probe aFGF2 on microarray, primary screen, stem cell growth factor project, biochemical, small-molecule microarray, fluorescence 635/667 (AID 1067);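 note: measures binding of biotinylated aFGF2 protein to printed compounds on slides; z-score merges feature fluorescence and signal-to-noise across triplicate slides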
Details: higher = more signal
I'd appreciate a reply containing only the number, no unit.

For orientation, consider the following solved cases.
{"compound": "C[N+](C)(C)CCCC[C@@H]1NC(=O)[C@H]2C[C@@H](C(=O)NCc3ccc(F)cc3)[C@@H](c3cccc(OCCO)c3)N2C1=O", "composite z-score": -0.149}
{"compound": "C=CCC(OC(C)=O)[C@@H]1[C@@H](N(Cc2ccc(-c3ccccc3)cc2)C(=O)c2ccc(-c3ccccc3)cc2)c2cc(OCCCO)ccc2N1C(=O)Cc1ccc(OC)cc1 (stereo partly specified)", "composite z-score": -0.0676}
{"compound": "CCN1C(C)=C(C(=O)OC)[C@@H](c2ccccc2)N2C(=O)[C@@]3(C(=O)OC)O[C@@]12[C@@H]1C(=O)N(c2ccccc2)C(=O)[C@@H]13", "composite z-score": -0.0924}

# next compound below
Problem: Report composite z-score, nothing else, for this compound: `CC[C@@H]1C=C(C(=O)O)[C@H](c2ccccc2)N1S(=O)(=O)c1ccc([N+](=O)[O-])cc1`
Solution: -0.0669

###

Test: A549 lung cancer cell viability effects, profiling panel, resazurin fluorescence, 24 h, PK04 Diversity Set (AID 1171); note: test concentration not given here
Details: higher = more signal, called active from +8 up or from −8 down
// reported z-score for each item listed
Form field (numeric): enter value without unit.

Study these solved cases before continuing.
{"substanceSmiles": "O=C1c2ccccc2[C@@]2(Cc3ccccc3N(CC(F)(F)F)C2=O)[C@H](c2ccc(CO)cc2)N1C1CCCCC1", "observedMeasurement": 0.304}
{"substanceSmiles": "[N-]=[N+]=NCc1ccccc1C[C@]1(C(N)=O)N=C(c2ccc(OCCCO)cc2)O[C@H]1c1ccccc1CN=[N+]=[N-]", "observedMeasurement": -1.97}
{"substanceSmiles": "CCCC[C@@H]1C[C@H]1[C@@H](NC(=O)c1ccccc1)c1ccccc1C(F)(F)F", "observedMeasurement": 2.38}

Problem: Supply z-score value. Item: `C=CC[C@]1(C(=O)N2CCCCC2)N=C(c2ccc(OCCCO)cc2)O[C@H]1c1ccccc1N=[N+]=[N-]`
Solution: -1.19

###

Assay: yeast growth modulation, basal conditions, primary screen, YJM789 clinical isolate, OD600, 24 h (AID 1089);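 note: growth of clinical yeast isolate S. cerevisiae YJM 789 seeded 1000 cells per well; test concentration not given here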
Details: S. cerevisiae YJM789 growth, higher = more signal, called active from +8 up or from −8 down
List of z-score values.
Quick one: just the number, no unit, thanks!

{"substanceSmiles": "O=C1O[C@@H](c2ccccc2)[C@@H](c2ccccc2)N2[C@@H](c3ccc(O)cc3)[C@]3(C(=O)Nc4ccccc43)[C@@H](C(=O)N3CCN(c4ncccn4)CC3)[C@H]12", "observedMeasurement": 0.2}
{"substanceSmiles": "CO[C@H]1O[C@H](CO)[C@@H](OC(=O)Nc2ccc3c(c2)OCO3)[C@H](OC(=O)Nc2ccccc2)[C@@H]1OC(=O)Nc1ccccc1", "observedMeasurement": 0.738}
{"substanceSmiles": "NC(=O)[C@H]1[C@@H]2C(=O)O[C@@H](c3ccccc3)[C@@H](c3ccccc3)N2[C@@H](c2ccc(O)cc2)[C@]12C(=O)Nc1ccc(C#CCCO)cc12", "observedMeasurement": -0.178}
{"substanceSmiles": "CO[C@H]1COC(=O)CC=C[C@H](C)COC(=O)[C@@H](OCc2ccccc2)C=C[C@@H]1C", "observedMeasurement": 0.0706}
{"substanceSmiles": "O=C1O[C@H](c2ccccc2)[C@H](c2ccccc2)N2[C@H]1[C@@H](C(=O)Nc1nc3ccccc3s1)[C@]1(C(=O)Nc3ccc(C#CC4=CCCCC4)cc31)[C@H]2c1ccccc1OCCO", "observedMeasurement": 2.17}

Problem: Return z-score for the following compound: `C=C(COC)C(=O)CC[C@H](OC(=O)c1ccccc1-c1ccccc1C(=O)O)c1cccc(OCCO)c1`
Solution: -22.6

Problem: In one line, give reported z-score of the entry `CO[C@H]1COC(=O)CC=C[C@@H](C)COC(=O)[C@@H](C)NC(=O)CC=C[C@@H]1C` .
Solution: -3.75

###

Target: Epidermal growth factor receptor (Homo sapiens) (UniProt P00533)
Sequence (P00533 whole entry, looked up): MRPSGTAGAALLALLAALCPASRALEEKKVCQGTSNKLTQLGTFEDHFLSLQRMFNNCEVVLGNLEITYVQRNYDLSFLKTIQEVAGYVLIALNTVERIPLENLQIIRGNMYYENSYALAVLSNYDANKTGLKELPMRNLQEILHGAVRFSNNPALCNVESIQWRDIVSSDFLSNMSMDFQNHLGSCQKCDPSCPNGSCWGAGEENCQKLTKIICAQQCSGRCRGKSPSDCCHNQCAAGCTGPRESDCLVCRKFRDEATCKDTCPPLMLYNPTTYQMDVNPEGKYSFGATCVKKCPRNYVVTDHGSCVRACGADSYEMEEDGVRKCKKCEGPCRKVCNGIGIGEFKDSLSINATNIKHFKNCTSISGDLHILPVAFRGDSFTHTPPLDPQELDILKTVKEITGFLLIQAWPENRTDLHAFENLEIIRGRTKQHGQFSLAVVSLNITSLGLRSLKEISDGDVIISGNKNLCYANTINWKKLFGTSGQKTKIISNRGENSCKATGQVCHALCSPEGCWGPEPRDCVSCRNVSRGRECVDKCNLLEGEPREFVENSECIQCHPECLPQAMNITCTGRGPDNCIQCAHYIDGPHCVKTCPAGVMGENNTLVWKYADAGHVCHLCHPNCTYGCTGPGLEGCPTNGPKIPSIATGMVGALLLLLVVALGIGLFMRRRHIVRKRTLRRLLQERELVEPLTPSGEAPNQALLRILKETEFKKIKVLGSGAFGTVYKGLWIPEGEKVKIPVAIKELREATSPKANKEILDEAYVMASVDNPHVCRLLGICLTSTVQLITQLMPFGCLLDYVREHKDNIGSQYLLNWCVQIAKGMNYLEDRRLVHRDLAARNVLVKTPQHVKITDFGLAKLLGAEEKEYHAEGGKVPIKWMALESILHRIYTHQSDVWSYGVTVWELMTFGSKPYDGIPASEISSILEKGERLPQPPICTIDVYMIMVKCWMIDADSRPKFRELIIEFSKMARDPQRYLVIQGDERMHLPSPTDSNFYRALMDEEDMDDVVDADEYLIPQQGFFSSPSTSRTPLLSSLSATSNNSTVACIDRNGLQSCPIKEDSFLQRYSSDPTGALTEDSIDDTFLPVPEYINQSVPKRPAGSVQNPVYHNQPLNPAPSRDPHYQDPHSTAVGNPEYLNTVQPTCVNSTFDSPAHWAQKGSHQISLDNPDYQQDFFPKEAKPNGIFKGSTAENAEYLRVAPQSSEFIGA
Experiment: EGFR binders on small-molecule microarrays, primary screen, biochemical, small-molecule microarray, 635 nm fluorescence (AID 1104);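 note: score merges 667 nm emission intensity with spot signal to noise over triplicate slides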
Conditions: EGFR binding, higher = more signal
Grouping rule (composite z-score): Low (below 0.09), Mid (0.09 to below 0.4), High (0.4 or more)

{"molecule": "COc1ccc([Si](C)(C)[C@H]2[C@H](CCO)O[C@@]3(C(=O)N(Cc4ccc(N5CCCCC5=O)cc4)c4ccccc43)[C@@H]2C)cc1", "class": "Mid"}
{"molecule": "CN1C2C=C(c3ccc(CO)cc3)C(C3C(=O)N(C(N)=O)C(=O)C32)C1c1cccs1 (stereo unspecified)", "class": "Mid"}
{"molecule": "CC(=O)NCCCC[C@@H]1NC(=O)[C@@H]2C[C@H](C(=O)NCCCCCNC(=O)CS)[C@H](c3ccc(O)cc3)N2C1=O", "class": "Low"}
{"molecule": "COCCOC(=O)N1C(=O)[C@@]2(c3cc(C#CCC(C(=O)OC)C(=O)OC)ccc31)[C@H](c1ccccc1OCCO)N1[C@H](c3ccccc3)[C@H](c3ccccc3)OC(=O)[C@H]1[C@@H]2C(=O)N1CCCCCCC1", "class": "High"}
{"molecule": "CCN1C(C)=C(C(=O)OC)[C@@H](c2ccccc2)N2C(=O)[C@](O)(C(=O)OC)[C@@H](c3ccccc3)C(C(=O)c3ccccc3)=C12", "class": "Mid"}
{"molecule": "O=C(NCc1ccccc1)[C@@]1(CCS(=O)(=O)c2ccccc2)COC(c2ccc(OCCCO)cc2)=N1", "class": "Low"}
{"molecule": "C=CCC(OC(C)=O)[C@@H]1[C@@H](N(Cc2cc3ccccc3o2)C(=O)Cc2ccc(F)cc2)c2cc(OCCCO)ccc2N1C(=O)c1ccc(-c2ccccc2)cc1 (stereo partly specified)", "class": "Low"}
{"molecule": "COc1cccc([C@@H]2[C@@H](C)CC[C@H]3C(=O)N(C)[C@@H](C(C)C)C(=O)N23)c1", "class": "High"}
{"molecule": "CCOC(=O)C[C@H]1[C@H](OC(=O)Cc2ccc3c(c2)OCO3)[C@@H](NC(=O)c2ccc3ccccc3c2)c2cc(OCCCO)ccc2N1C(=O)Cc1ccc(OC)cc1", "class": "Mid"}
{"molecule": "C=C(COC)/C(=C/C[C@@H](OC(=O)c1ccncc1)c1ccc(OCCO)cc1)c1cc(C(=O)OC)ccc1OC", "class": "Mid"}

Problem: Pick a category. Item: O=C1C2C=CC(C(O)C#Cc3ccccc3)N(Nc3ccccc3)C2C(=O)N1c1ccccc1 (stereo unspecified)
Solution: Low

Problem: Hello team, could you let me know which band the following molecule falls into: `C[N+](C)(C)CCCCNC(=O)[C@H]1C[C@H]2C(=O)NCC(=O)N2[C@H]1c1cccc(OCCO)c1`
Solution: High

Problem: In plain terms, what class is `COc1ccc(-c2cc3c(c(-c4ccccc4)n2)[Si](C(C)C)(C(C)C)O[C@H]3c2ccccc2)cn1` ?
Solution: Mid

Problem: Kindly state the category for this molecule: `O=C1O[C@@H](c2ccccc2)[C@@H](c2ccccc2)N2[C@@H](c3ccccc3OCCO)[C@]3(C(=O)Nc4ccc(C#CC5=CCCCC5)cc43)[C@@H](C(=O)O)[C@H]12`
Solution: Mid

Problem: Hi there! Could you help me figure out the category for `C=C(COC)/C(=C/C[C@H](OC(C)=O)c1ccc(OCCO)cc1)c1cnc2ccccc2c1` please?
Solution: High

Problem: Exam item: assign `CCCC[C@@H]1C[C@H]1[C@@H](NC(=O)c1cccs1)c1ccc(Cl)cc1` to the correct category.
Solution: Low

The measurements presented in this section are drawn from PubChem BioAssay.
